- Test system: S. aureus FAD209P JC-1
Property Name: MIC (µg/mL)
Reply numerically in µg/mL, unit not repeated.

Look over these answered cases.
Ask: Recall the recorded MIC for C[C@@H](O)[C@H]1C(=O)N2C(C(=O)O)=C(C3CCCO3)S[C@H]12 (relative stereo) with S. aureus FAD209P JC-1 and state it.
Result: 0.1

Ask: Recall the recorded MIC for `C[C@@H](O)[C@H]1C(=O)N2C(C(=O)O)=C([C@@H]3COCCO3)S[C@H]12` with S. aureus FAD209P JC-1 and state it.
Result: 0.2

Ask: Recall the recorded MIC for `C[C@@H](O)[C@H]1C(=O)N2C(C(=O)O)=C([C@H]3CCCCO3)S[C@H]12` with S. aureus FAD209P JC-1 and state it.
Result: 0.1

Ask: Recall the recorded MIC for C[C@@H](O)[C@H]1C(=O)N2C(C(=O)O)=C([C@@H]3CCCO3)S[C@H]12 [SUN 4434] with S. aureus FAD209P JC-1 and state it.
Result: 0.05

Ask: Recall the recorded MIC for COCC1=C(C(=O)O)N2C(=O)[C@H]([C@@H](C)O)[C@H]2S1 (relative stereo) [SUN 3585, reference compound] with S. aureus FAD209P JC-1 and state it.
Result: 0.1

Further cases:
Ask: Recall the recorded MIC for C[C@@H](O)[C@H]1C(=O)N2C(C(=O)O)=C(Cc3ccsc3)S[C@H]12 (relative stereo) [SUN 3514, reference compound] with S. aureus FAD209P JC-1 and state it.
Result: 0.05

Ask: Recall the recorded MIC for CCSCC1=C(C(=O)O)N2C(=O)[C@H]([C@@H](C)O)[C@H]2S1 (relative stereo) [SUN 3515, reference compound] with S. aureus FAD209P JC-1 and state it.
Result: 0.1
